In this section we review reported binary diffusion coefficient values for a set of compounds.
Assay: xn = mol fraction of the nth substance listed
Conditions: 313.16 K; 30000 kPa; Liquid; Taylor dispersion method; x1 = 0
Value expressed in m2/s; do not type the unit.

Example cases with answers are listed next.
COMPOUND | binary diffusion coefficient / m2/s
C=CCc1ccccc1 [2-propenylbenzene] + O=C=O | 8.29e-09
COc1ccccc1Br [1-bromo-2-methoxybenzene] + O=C=O | 7.48e-09
COc1ccccc1F [2-fluoroanisole] + O=C=O | 8.01e-09

Then this compound:
Just so you know, measured binary diffusion coefficient for C=Cc1cccc(C=C)c1 [1,3-diethenylbenzene] + O=C=O came out at 8.07e-09

Just for reference, the NIST ThermoML archive (doi:10.1016/j.fluid.2007.07.039) is where these values come from.
